target: SUCR1 mutants (variant named in the endpoint) (Homo sapiens, UniProt Q9BXA5, F285A); construct: The full-length human SUCR1 and mutations were fused after the HA signal peptide and Flag tag; HA signal peptide (N); Flag (N); experiment: Calcium mobilization assay, SUCR1 mutants in HEK293 stably expressing Gα16; conditions: SUCR1 F285A
Sequence (Q9BXA5 whole entry F285A, the tested form may be a part): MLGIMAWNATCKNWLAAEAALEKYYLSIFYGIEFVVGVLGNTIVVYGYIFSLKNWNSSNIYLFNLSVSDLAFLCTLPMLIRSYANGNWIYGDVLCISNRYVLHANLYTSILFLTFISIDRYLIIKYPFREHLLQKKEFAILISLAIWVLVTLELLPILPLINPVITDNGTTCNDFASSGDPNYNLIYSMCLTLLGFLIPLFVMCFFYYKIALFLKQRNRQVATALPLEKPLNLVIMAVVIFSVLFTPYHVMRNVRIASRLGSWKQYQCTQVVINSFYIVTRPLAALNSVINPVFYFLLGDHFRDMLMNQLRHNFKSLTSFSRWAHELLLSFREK
attribute measured: EC50
In your response, the unit should come after the numeric value.

Query (molecule): O=C(O)CCC(=O)O [SUC, succinate] ; field requested: EC50 3.6 mM

====

test system: OXGR1 mutants (variant named in the endpoint); experiment: Calcium mobilization assay, OXGR1 mutants in HEK293; settings: OXGR1 Y284A;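 note: human OXGR1 variants transiently expressed in HEK293 cells, with intracellular calcium read out by Fluo-4 AM fluorescence, measured 24 h after transfection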
Where a name gives a salt, the structure may show the parent alone.
The entries below come with measured EC50 values attached.

O=C(O)/C=C\C(=O)O [MA, maleate]	> 1000 µM
C=C(CC(=O)O)C(=O)O [ITA, itaconate]	> 1000 µM

Alright, here's another molecule for you.
Query (molecule): O=C(O)CCC(=O)O [SUC, succinate] ; field requested: EC50 > 1000 µM

====

biological target: SUCR1 mutants (variant named in the endpoint) (Homo sapiens, UniProt Q9BXA5, F285A/F72Y/L102F); construct: The full-length human SUCR1 and mutations were fused after the HA signal peptide and Flag tag; HA signal peptide (N); Flag (N); experiment: Calcium mobilization assay, SUCR1 mutants in HEK293 stably expressing Gα16; conditions: SUCR1 F72Y-L102F-F285A
attribute measured: EC50 (mM)
// return numeric value only (unit: mM, not printed)

Query (compound): O=C(O)CCC(=O)O [SUC, succinate] ; field requested: EC50 3.9
